Entries and their Kd
target: T1, cSNK:BSA conjugate (bovine, head-to-tail cyclized; conjugated to BSA carrier); assay: BLI 2:1 fit, site 2 (KD2); 1.56 nM row
T1 construct: also called BSA-cSNK
T1 sequence (P02769 25-607 limits assumed): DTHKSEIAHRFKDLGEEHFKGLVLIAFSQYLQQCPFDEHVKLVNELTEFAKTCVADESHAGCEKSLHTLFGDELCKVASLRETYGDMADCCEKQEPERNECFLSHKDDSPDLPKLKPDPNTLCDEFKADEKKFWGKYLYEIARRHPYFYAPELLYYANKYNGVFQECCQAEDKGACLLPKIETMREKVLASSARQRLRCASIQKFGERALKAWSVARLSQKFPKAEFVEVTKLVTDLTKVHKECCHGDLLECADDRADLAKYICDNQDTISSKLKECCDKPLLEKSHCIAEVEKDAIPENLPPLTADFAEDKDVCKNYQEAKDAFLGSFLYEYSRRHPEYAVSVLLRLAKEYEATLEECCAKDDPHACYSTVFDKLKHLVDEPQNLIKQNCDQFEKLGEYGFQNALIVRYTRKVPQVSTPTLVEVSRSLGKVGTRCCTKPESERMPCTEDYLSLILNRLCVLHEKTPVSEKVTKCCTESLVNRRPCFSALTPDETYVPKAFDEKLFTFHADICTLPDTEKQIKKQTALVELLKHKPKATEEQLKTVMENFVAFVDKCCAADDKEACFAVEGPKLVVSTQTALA
Expressed in nM, but write only the number.

rehu5E3-IgG4 (antibody, V domains shown, human IgG4/kappa; also called IgG4 rehu version) VH: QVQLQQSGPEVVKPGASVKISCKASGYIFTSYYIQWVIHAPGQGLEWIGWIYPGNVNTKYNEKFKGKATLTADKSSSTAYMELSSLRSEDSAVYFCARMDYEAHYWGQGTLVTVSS VL: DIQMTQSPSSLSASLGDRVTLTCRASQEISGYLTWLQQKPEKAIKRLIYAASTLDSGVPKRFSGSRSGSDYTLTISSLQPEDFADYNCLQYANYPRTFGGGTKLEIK	3.94
hu5E3-IgG1 (antibody, V domains shown, human IgG1/kappa; also called humanized 5E3 IgG1; IHA variant) VH: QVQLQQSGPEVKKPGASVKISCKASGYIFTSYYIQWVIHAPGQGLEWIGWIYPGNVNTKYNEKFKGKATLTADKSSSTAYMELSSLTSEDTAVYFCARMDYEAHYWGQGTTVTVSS VL: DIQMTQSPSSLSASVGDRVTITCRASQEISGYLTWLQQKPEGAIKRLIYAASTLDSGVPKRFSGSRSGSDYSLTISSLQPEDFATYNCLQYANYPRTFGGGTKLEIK	1.82
hu5E3-IgG4 (antibody, V domains shown, human IgG4/kappa; also called humanized 5E3 IgG4) VH: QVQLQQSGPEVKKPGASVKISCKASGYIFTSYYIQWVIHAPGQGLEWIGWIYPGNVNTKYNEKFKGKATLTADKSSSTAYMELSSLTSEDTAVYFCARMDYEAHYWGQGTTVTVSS VL: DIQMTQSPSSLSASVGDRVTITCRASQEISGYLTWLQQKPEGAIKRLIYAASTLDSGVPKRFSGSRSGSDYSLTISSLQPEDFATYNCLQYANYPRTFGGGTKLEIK	3.04

Could you now consider this next binder?
According to the records, this binder murine monoclonal antibody 5E3 (antibody, V domains shown, mouse antibody of the 5E3 hybridoma; also called murine 5E3; m5E3) VH: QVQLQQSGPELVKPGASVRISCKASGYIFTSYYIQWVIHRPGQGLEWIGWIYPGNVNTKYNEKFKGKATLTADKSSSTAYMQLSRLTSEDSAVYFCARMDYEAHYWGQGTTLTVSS VL: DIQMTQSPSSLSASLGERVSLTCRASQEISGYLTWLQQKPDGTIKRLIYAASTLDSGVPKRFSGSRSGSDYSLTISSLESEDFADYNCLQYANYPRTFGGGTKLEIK displays Kd of 1.59

Values were extracted from patent US20170008955A1.
